Exercise: state measured IC50 for each of the compounds provided.
tested on: Bel-7402; experiment: Cytotoxicity against human Bel7402 cells by MTT assay; assay type: functional, cell-based
Reply numerically in µM, unit not repeated.

GET /values?readout=IC50&item= CC1=CC(=O)[C@@H](O)[C@@]2(C)[C@H]1[C@@H](O)[C@H]1OC(=O)[C@H](O)[C@]3(O)[C@]14CO[C@]3(CO)[C@@H](O)[C@H](O)[C@H]24 [YADANZIOLIDE B]
4.24

GET /values?readout=IC50&item= CC1=CC(=O)[C@@H](O)[C@]2(C)[C@H]3[C@@H](O)[C@H](O)[C@H](CO)[C@@H]4[C@@H](O)C(=O)O[C@H](C[C@@H]12)[C@@]43C (relative stereo)
4.4

GET /values?readout=IC50&item= COc1cccc2c1C(=O)c1c(O)c3c(c(O)c1C2=O)C[C@@](O)(C(=O)CO)C[C@@H]3O[C@H]1C[C@H](N)[C@H](O)[C@H](C)O1 [DOXORUBICIN]
0.53

GET /values?readout=IC50&item= CC1=CC(=O)[C@@H](O)[C@]2(C)[C@H]3[C@@H](O)[C@H](O)[C@]4(C)OC[C@@]35[C@@H](C[C@@H]12)OC(=O)[C@H](O)[C@]54O [BRUCEINE D]
3.51

* * *

test system: Bel-7402; assay: Cytotoxicity against human Bel7402 cells by MTT assay; type: functional, cell-based
experimental.endpoint: IC50

Provide value of IC50 for this record tested with Bel-7402: CC1(C)c2[nH]c3ccccc3c2C(=O)[C@@H]1O [BRUCEOLLINE J]
> 10 µM

Provide value of IC50 for this record tested with Bel-7402: CC1=CC(=O)[C@@H](O)[C@]2(C)[C@H]3[C@@H](O)[C@H](O)[C@H](CO[C@@H]4O[C@H](CO)[C@@H](O)[C@H](O)[C@H]4O)[C@@H]4[C@@H](O)C(=O)O[C@H](C[C@@H]12)[C@@]43C [YADANZIOLIDE U]
> 10 µM

Provide value of IC50 for this record tested with Bel-7402: CC1(C)c2[nH]c3cc(O)ccc3c2C(=O)[C@@H]1O [BRUCEOLLINE I]
> 10 µM

Provide value of IC50 for this record tested with Bel-7402: CC(C)(O)[C@@H](O)C[C@]1(O)C(=O)N([C@@H]2O[C@H](CO)[C@@H](O)[C@H](O)[C@H]2O)c2ccccc21 [BRUCEOLLINE N]
> 10 µM

Provide value of IC50 for this record tested with Bel-7402: CC(C)(O)C(=O)Cc1cn([C@@H]2O[C@H](CO)[C@@H](O)[C@H](O)[C@H]2O)c2ccccc12 [BRUCEOLLINE M]
> 10 µM

Provide value of IC50 for this record tested with Bel-7402: CC1(C)C(=O)C(=O)c2c1[nH]c1cc(O)ccc21 [BRUCEOLLINE H]
> 10 µM

Provide value of IC50 for this record tested with Bel-7402: CC(C)(O)[C@@H](O)Cc1cn([C@@H]2O[C@H](CO)[C@@H](O)[C@H](O)[C@H]2O)c2ccccc12 [BRUCEOLLINE F]
> 10 µM

Provide value of IC50 for this record tested with Bel-7402: CC(C)[C@@H](O)C(=O)c1c[nH]c2ccccc12 [BRUCEOLLINE L]
> 10 µM

* * *

tested on: Bel-7402; assay: Cytotoxicity against human Bel7402 cells by MTT assay; format: functional, cell-based
pIC50: −log10 of the molar value.
experimental.endpoint: pIC50

GET /values?readout=pIC50&item= CC1=CC(=O)O[C@H]1[C@@]1(C)C[C@H]2OC(=O)[C@H](O)[C@H]3[C@@H](CO)[C@@H](O)[C@H](O)[C@H]1[C@]32C (relative stereo)
< 5.00

GET /values?readout=pIC50&item= "CC1(C)C(=O)C(=O)c2c1[nH]c1ccccc21"
< 5.00

GET /values?readout=pIC50&item= "CC1(C)c2[nH]c3ccccc3c2C(=O)[C@@H]1O[C@@H]1O[C@H](CO)[C@@H](O)[C@H](O)[C@H]1O"
< 5.00
